Tested on: SARS-CoV-2 replicon
Protocol: microbe, parasite or virus in culture
Type: cell-based
Reported conditions: read-out: Replicon EC50
One threshold, 80 nM, splits the recorded EC50 values: lower ones are condition met, equal or higher ones are condition not met.

CC(C)(C)[C@H](NC(=O)C(F)(F)C(F)(F)C(F)(F)C(F)(F)F)C(=O)N1C[C@H]2[C@@H]([C@H]1C(=O)N[C@H](C#N)C[C@@H]1CCNC1=O)C2(C)C [Compound 146] | condition not met
CC(C)(C)[C@H](NS(=O)(=O)CC#N)C(=O)N1C[C@H]2[C@@H]([C@H]1C(=O)N[C@H](C#N)C[C@@H]1CCNC1=O)C2(C)C [Compound 132] | condition met
C=CCS(=O)(=O)N[C@H](C(=O)N1C[C@H]2[C@@H]([C@H]1C(=O)N[C@H](C#N)C[C@@H]1CCNC1=O)C2(C)C)C(C)(C)C [Compound 131] | condition not met

[Q] hey, is EC50 for CC(C)(C)[C@H](NS(=O)(=O)c1ccc(F)c(F)c1)C(=O)N1C[C@H]2[C@@H]([C@H]1C(=O)N[C@H](C#N)C[C@@H]1CCNC1=O)C2(C)C [Compound 99] lower than 80 nM or not?
[A] condition not met

[Q] Please determine if CC(C)(C)[C@H](NS(=O)(=O)c1ccc(Cl)s1)C(=O)N1C[C@H]2[C@@H]([C@H]1C(=O)N[C@H](C#N)C[C@@H]1CCNC1=O)C2(C)C [Compound 54] is below 80 nM in terms of EC50.
[A] condition met

[Q] Given CC(C)(C)[C@H](NC(=O)CCC(F)(F)F)C(=O)N1C[C@H]2[C@@H]([C@H]1C(=O)N[C@H](C#N)C[C@@H]1CCNC1=O)C2(C)C [Compound 138] , is recorded EC50 strictly lower than 80 nM?
[A] condition not met

[Q] Lab note: confirm whether the reported EC50 for this molecule is below 80 nM, equality not counting. molecule: CC(C)(C)[C@H](NS(=O)(=O)c1ccc(F)cc1)C(=O)N1C[C@H]2[C@@H]([C@H]1C(=O)N[C@H](C#N)C[C@@H]1CCNC1=O)C2(C)C [Compound 53]
[A] condition not met

[Q] Consider CC(C)(C)[C@H](NS(=O)(=O)c1ccc(C(F)(F)F)cc1)C(=O)N1C[C@H]2[C@@H]([C@H]1C(=O)N[C@H](C#N)C[C@@H]1CCNC1=O)C2(C)C [Compound 44] . Does its EC50 lie strictly below 80 nM?
[A] condition not met

[Q] Please indicate whether the reported EC50 of COc1ccccc1S(=O)(=O)N[C@H](C(=O)N1C[C@H]2[C@@H]([C@H]1C(=O)N[C@H](C#N)C[C@@H]1CCNC1=O)C2(C)C)C(C)(C)C [Compound 130] is strictly below 80 nM.
[A] condition not met

[Q] API: query returns whether the molecule falls strictly under 80 nM in EC50. Query: CC(C)(C)[C@H](NS(=O)(=O)c1cc2c(s1)CCCC2)C(=O)N1C[C@H]2[C@@H]([C@H]1C(=O)N[C@H](C#N)C[C@@H]1CCNC1=O)C2(C)C [Compound 135]
[A] condition met

###

System: human coronavirus (HCoV) 229E
Protocol: microbe, parasite or virus in culture
Format: cell-based, human coronavirus 229E
Reported conditions: MRCS cells, HCoV 229E, 3 days, CellTiter Glo; read-out: 229E CPE EC50
Metric name: pEC50
Note: pEC50 values are expressed as the negative base-10 logarithm of concentration in M.

CC(C)(C)[C@H](NS(=O)(=O)c1ccc(F)c(F)c1)C(=O)N1C[C@H]2[C@@H]([C@H]1C(=O)N[C@H](C#N)C[C@@H]1CCNC1=O)C2(C)C [Compound 99] | 6.46
CC(C)(C)[C@H](NS(=O)(=O)c1ccc(F)cc1)C(=O)N1C[C@H]2[C@@H]([C@H]1C(=O)N[C@H](C#N)C[C@@H]1CCNC1=O)C2(C)C [Compound 53] | 6.44

[Q] # returns recorded pEC50 (system: human coronavirus (HCoV) 229E) for CC(C)(C)[C@H](NS(=O)(=O)c1cc2c(s1)CCCC2)C(=O)N1C[C@H]2[C@@H]([C@H]1C(=O)N[C@H](C#N)C[C@@H]1CCNC1=O)C2(C)C [Compound 135]
[A] 7.17

These entries and their values trace back to patent US11760722B2.
